# maps each entry to its pKd
# Study System: recombinant human E-selectin/CD63E Fc Chimera (Homo sapiens, UniProt P16581)
# Sequence (P16581 with tags, fused parts or gaps limits assumed): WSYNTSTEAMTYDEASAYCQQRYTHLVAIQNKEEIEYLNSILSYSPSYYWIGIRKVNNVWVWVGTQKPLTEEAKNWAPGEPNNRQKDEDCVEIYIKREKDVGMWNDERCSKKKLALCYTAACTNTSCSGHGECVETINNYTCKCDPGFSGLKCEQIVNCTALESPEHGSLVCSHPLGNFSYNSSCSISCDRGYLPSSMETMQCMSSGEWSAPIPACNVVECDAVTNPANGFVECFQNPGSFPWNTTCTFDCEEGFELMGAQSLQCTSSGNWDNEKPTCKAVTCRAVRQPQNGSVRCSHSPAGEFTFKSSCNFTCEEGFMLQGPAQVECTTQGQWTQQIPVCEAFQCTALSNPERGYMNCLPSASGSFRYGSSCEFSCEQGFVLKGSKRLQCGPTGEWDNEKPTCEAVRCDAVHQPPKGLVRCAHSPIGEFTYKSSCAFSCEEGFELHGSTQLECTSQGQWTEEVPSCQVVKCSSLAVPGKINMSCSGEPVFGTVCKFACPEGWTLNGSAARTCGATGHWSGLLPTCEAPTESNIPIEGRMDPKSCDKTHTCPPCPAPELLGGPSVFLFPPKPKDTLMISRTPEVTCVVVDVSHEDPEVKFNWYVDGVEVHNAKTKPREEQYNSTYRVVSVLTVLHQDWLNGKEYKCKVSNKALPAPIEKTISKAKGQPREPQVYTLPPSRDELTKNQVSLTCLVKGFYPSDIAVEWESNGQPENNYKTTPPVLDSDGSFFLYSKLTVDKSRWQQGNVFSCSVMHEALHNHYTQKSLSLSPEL
# Method Summary: E-selectin activity, analysis by SPR (Biacore X100)
# Condition Set: Biacore X100, CM5 chip, E-selectin Fc chimera captured on anti-human IgG (Fc) antibody
# Method: Surface Plasmon Resonance (SPR) measurements were performed on a Biacore X100 instrument (GE Healthcare). A CM5 sensor chip (GE Healthcare) was used for the interaction between E-selectin and GMI compound. […] Increasing concentrations of GMI compound samples were injected at 30 μl/min into both flow cells and all sensorgrams were recorded against the control. […] Data were analyzed using Biacore X100 evaluation/BIA evaluation 4.1.1 software (GE Healthcare) and Graphad prism 6 software.
Friendly reminder that pKd comes from taking -log10 of the concentration in mol/L.

Reference set (2 entries):
Input line: Reported pKd for CCC1CC(C(=O)NCCNC(=O)CCOCCOCCC(=O)NCCNC(=O)C2CC(CC)C(OC3OC(C)C(O)C(O)C3O)C(OC3OC(CO)C(O)C(OC(CC4CCCCC4)C(=O)O)C3NC(C)=O)C2)CC(OC2OC(CO)C(O)C(OC(CC3CCCCC3)C(=O)O)C2NC(C)=O)C1OC1OC(C)C(O)C(O)C1O (stereo not drawn) : what is it?
Output line: 8.46

Input line: Lookup CCC1CC(C(=O)NCCNC(=O)CCOCCOCCOCCOCCC(=O)NCCNC(=O)C2CC(CC)C(OC3OC(C)C(O)C(O)C3O)C(OC3OC(CO)C(O)C(OC(CC4CCCCC4)C(=O)O)C3NC(C)=O)C2)CC(OC2OC(CO)C(O)C(OC(CC3CCCCC3)C(=O)O)C2NC(C)=O)C1OC1OC(C)C(O)C(O)C1O (stereo not drawn)
Output line: 8.29

Here's the next entry for you.
Input line: For the compound shown here, CCC1CC(C(=O)NCCNC(=O)c2cn(CCOCCC(=O)NCCCCC(NC(=O)CCOCCn3cc(C(=O)NCCNC(=O)C4CC(CC)C(OC5OC(C)C(O)C(O)C5O)C(OC5OC(CO)C(O)C(OC(CC6CCCCC6)C(=O)O)C5NC(C)=O)C4)nn3)C(=O)OCc3ccccc3)nn2)CC(OC2OC(CO)C(O)C(OC(CC3CCCCC3)C(=O)O)C2NC(C)=O)C1OC1OC(C)C(O)C(O)C1O (stereo not drawn) , give the reported pKd.
Output line: 8.41

====

# Study System: recombinant human E-selectin/CD63E Fc Chimera (Homo sapiens)
# Method Summary: E-selectin activity, analysis by SPR (Biacore X100)
# Condition Set: Biacore X100, CM5 chip, E-selectin Fc chimera captured on anti-human IgG (Fc) antibody
Form field: pKd (one value per entry).
As a rule, pKd stands for the negative log10 of the concentration, concentration in M.

// solved cases for pKd follow
Input line: Fill in the blank: the reported pKd of CCC1CC(C(=O)NCCNC(=O)CCOCCOCCOCCOCCOCCOCCOCCOCCOCCOCCC(=O)NCCNC(=O)C2CC(CC)C(OC3OC(C)C(O)C(O)C3O)C(OC3OC(CO)C(O)C(OC(CC4CCCCC4)C(=O)N4CCC4)C3NC(C)=O)C2)CC(OC2OC(CO)C(O)C(OC(CC3CCCCC3)C(=O)N3CCC3)C2NC(C)=O)C1OC1OC(C)C(O)C(O)C1O (centres unmarked) is ____.
Output line: 9.10

Input line: Try this compound too: CC[C@H]1C[C@@H](C(=O)NCCNC(=O)c2cn(CC(=O)NCCNC(=O)[C@@H]3C[C@H](CC)[C@@H](O[C@@H]4O[C@@H](C)[C@@H](O)[C@@H](O)[C@@H]4O)[C@H](O[C@@H]4O[C@H](CO)[C@H](O)[C@H](O[C@@H](CC5CCCCC5)C(=O)O)[C@H]4NC(C)=O)C3)nn2)C[C@@H](OC2O[C@H](CO)[C@H](O)[C@H](O[C@@H](CC3CCCCC3)C(=O)O)[C@H]2NC(C)=O)[C@@H]1OC1O[C@@H](C)[C@@H](O)[C@@H](O)[C@@H]1O (some centres unmarked)
Output line: 8.48

Input line: Query CC[C@H]1C[C@@H](C(=O)NCCNC(=O)NCCNC(=O)[C@@H]2C[C@H](CC)[C@@H](O[C@@H]3O[C@@H](C)[C@@H](O)[C@@H](O)[C@@H]3O)[C@H](O[C@@H]3O[C@H](CO)[C@H](O)[C@H](O[C@@H](CC4CCCCC4)C(=O)O)[C@H]3NC(C)=O)C2)C[C@@H](OC2O[C@H](CO)[C@H](O)[C@H](O[C@@H](CC3CCCCC3)C(=O)O)[C@H]2NC(C)=O)[C@@H]1OC1O[C@@H](C)[C@@H](O)[C@@H](O)[C@@H]1O (some centres unmarked) next
Output line: 8.06

More entries:
Input line: // pKd lookup, key: CCC1CC(C(=O)OC)C[C@@H](O[C@@H]2O[C@@H](CO)[C@H](O)C(O[C@@H](CC3CCCCC3)C(=O)N3CCC3)C2NC(C)=O)[C@@H]1O[C@@H]1OC(C)[C@@H](O)[C@H](O)C1O (some centres unmarked)
Output line: 5.59

Input line: Try this compound too: CCC1CC(C(=O)NCCNC(=O)CCOCCOCCC(=O)NCCNC(=O)C2CC(CC)C(OC3OC(C)C(O)C(O)C3O)C(OC3OC(CO)C(O)C(OC(CC4CCCCC4)C(=O)N4CCC4)C3NC(C)=O)C2)CC(OC2OC(CO)C(O)C(OC(CC3CCCCC3)C(=O)N3CCC3)C2NC(C)=O)C1OC1OC(C)C(O)C(O)C1O (centres unmarked)
Output line: 8.52

Input line: Entry to check: CC[C@H]1C[C@@H](C(=O)NCCNC(=O)CCC(=O)NCCNC(=O)C2C[C@H](CC)[C@@H](O[C@@H]3O[C@@H](C)[C@@H](O)[C@@H](O)[C@@H]3O)[C@H](O[C@@H]3O[C@H](CO)[C@H](O)[C@H](O[C@@H](CC4CCCCC4)C(=O)O)[C@H]3NC(C)=O)C2)C[C@@H](OC2O[C@H](CO)[C@H](O)[C@H](O[C@@H](CC3CCCCC3)C(=O)O)[C@H]2NC(C)=O)[C@@H]1O[C@@H]1O[C@@H](C)[C@@H](O)[C@@H](O)[C@@H]1O (some centres unmarked)
Output line: 7.99

Input line: Please give the result for CCC1CC(C(=O)NCCNC(=O)CCOCCOCCOCCOCCOCCOCCC(=O)NCCNC(=O)C2CC(CC)C(OC3OC(C)C(O)C(O)C3O)C(OC3OC(CO)C(O)C(OC(CC4CCCCC4)C(=O)O)C3NC(C)=O)C2)CC(OC2OC(CO)C(O)C(OC(CC3CCCCC3)C(=O)O)C2NC(C)=O)C1OC1OC(C)C(O)C(O)C1O (centres unmarked) too.
Output line: 8.22

Input line: Would you mind doing CCC1CC(C(=O)NCCNC(=O)CCOCCOCCOCCOCCOCCOCCOCCOCCOCCOCCC(=O)NCCNC(=O)C2CC(CC)C(OC3OC(C)C(O)C(O)C3O)C(OC3OC(CO)C(O)C(OC(CC4CCCCC4)C(=O)O)C3NC(C)=O)C2)CC(OC2OC(CO)C(O)C(OC(CC3CCCCC3)C(=O)O)C2NC(C)=O)C1OC1OC(C)C(O)C(O)C1O (centres unmarked) as well?
Output line: 8.22

Input line: Now the compound CCC1CC(C(=O)NCCNC(=O)CCOCCOCCOCCOCCC(=O)NCCNC(=O)C2CC(CC)C(OC3OC(C)C(O)C(O)C3O)C(OC3OC(CO)C(O)C(OC(CC4CCCCC4)C(=O)N4CCC4)C3NC(C)=O)C2)CC(OC2OC(CO)C(O)C(OC(CC3CCCCC3)C(=O)N3CCC3)C2NC(C)=O)C1OC1OC(C)C(O)C(O)C1O (centres unmarked)
Output line: 8.55

Input line: Similarly, CC[C@H]1C[C@@H](C(=O)NCCNC(=O)NCCNC(=O)[C@@H]2C[C@H](CC)[C@@H](O[C@@H]3O[C@@H](C)[C@@H](O)[C@@H](O)[C@@H]3O)[C@H](O[C@@H]3O[C@H](CO)[C@H](O)[C@H](O[C@@H](CC4CCCCC4)C(=O)N4CCC4)[C@H]3NC(C)=O)C2)C[C@@H](OC2O[C@H](CO)[C@H](O)[C@H](O[C@@H](CC3CCCCC3)C(=O)N3CCC3)[C@H]2NC(C)=O)[C@@H]1OC1O[C@@H](C)[C@@H](O)[C@@H](O)[C@@H]1O (some centres unmarked) ?
Output line: 8.68

Input line: Then what about the compound CCC1CC(C(=O)NCCNC(=O)c2cn(CCOCCOCCn3cc(C(=O)NCCNC(=O)C4CC(CC)C(OC5OC(C)C(O)C(O)C5O)C(OC5OC(CO)C(O)C(OC(CC6CCCCC6)C(=O)O)C5NC(C)=O)C4)nn3)nn2)CC(OC2OC(CO)C(O)C(OC(CC3CCCCC3)C(=O)O)C2NC(C)=O)C1OC1OC(C)C(O)C(O)C1O (centres unmarked) ?
Output line: 8.49
